# EXPERIMENTAL_TARGET: UniProt:P0A749
# PROTOCOL: Inhibition of Escherichia colo K12 His-tagged MurA expressed in Escherichia coli BL21 cells using UNAG as substrate pre incubated for 10 mins followed by substrate addition and measured after 30 mins by microplate reader analysis

{"columns": ["CHEMICAL_SMILES", "IC50"],
 "data": [
  ["O=C1/C(=N\\O)CN(c2cccc(Cl)c2)N1c1cccc(Cl)c1", "88.1 µM"]
]}

---

# EXPERIMENTAL_TARGET: UDP-N-acetylglucosamine 1-carboxyvinyltransferase (Escherichia coli K-12)
# Sequence (P0A749 whole entry): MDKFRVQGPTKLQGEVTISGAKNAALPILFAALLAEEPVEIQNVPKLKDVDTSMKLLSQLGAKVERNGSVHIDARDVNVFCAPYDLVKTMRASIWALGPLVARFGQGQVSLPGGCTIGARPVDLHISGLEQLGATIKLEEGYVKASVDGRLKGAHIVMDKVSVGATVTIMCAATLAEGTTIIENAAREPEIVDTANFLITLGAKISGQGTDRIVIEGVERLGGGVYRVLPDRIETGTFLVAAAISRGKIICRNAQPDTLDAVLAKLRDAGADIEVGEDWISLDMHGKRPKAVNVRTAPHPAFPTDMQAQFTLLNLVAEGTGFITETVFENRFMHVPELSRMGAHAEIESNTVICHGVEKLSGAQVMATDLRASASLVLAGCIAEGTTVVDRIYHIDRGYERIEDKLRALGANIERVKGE
# PROTOCOL: Inhibition of Escherichia coli K12 His-tagged MurA expressed in Escherichia coli BL21 cells at 50 uM using UNAG as substrate pre incubated for 15 mins followed by substrate addition and measured after 15 mins by microplate reader analysis relative to control
# EXPERIMENTAL_CONDITIONS: time 30.0 min
Active and inactive are the calls of the source. No cut-off for these calls is given here.

{"columns": ["COMPOUND", "inhibition"],
 "data": [
  ["O=C(Nc1ccccn1)C1CN(c2cccc(Cl)c2)N(c2cccc(Cl)c2)C1=O (centres undefined)", "30.5%"],
  ["O=C(Nc1ccc2cn[nH]c2c1)C1CN(c2cccc(Cl)c2)N(c2cccc(Cl)c2)C1=O (centres undefined)", "65.2%"],
  ["CSc1nnc(NC(=O)C2CN(c3cccc(Cl)c3)N(c3cccc(Cl)c3)C2=O)s1 (centres undefined)", "63.4%"],
  ["N#Cc1ccc(NC(=O)C2CN(c3cccc(Cl)c3)N(c3cccc(Cl)c3)C2=O)cn1 (centres undefined)", "32.2%"],
  ["O=C(Nc1ncc([N+](=O)[O-])s1)C1CN(c2ccc(Cl)cc2)N(c2ccc(Cl)cc2)C1=O (centres undefined)", "70.2%"],
  ["CN1C(=O)C(C(=O)Nc2ncc(C#N)s2)CN1c1cccc(Cl)c1 (centres undefined)", "inactive"],
  ["O=C(Nc1ccc2ncsc2c1)C1CN(c2cccc(Cl)c2)N(c2cccc(Cl)c2)C1=O (centres undefined)", "44.7%"],
  ["O=C(Nc1nc2ccccc2s1)C1CN(c2cccc(Cl)c2)N(c2cccc(Cl)c2)C1=O (centres undefined)", "65.2%"],
  ["O=C1SCCC1NC(=O)C1CN(c2ccccc2)N(c2ccccc2)C1=O (centres undefined)", "inactive"],
  ["O=C(Nc1ccc2[nH]ncc2c1)C1CN(c2cccc(Cl)c2)N(c2cccc(Cl)c2)C1=O (centres undefined)", "59.5%"],
  ["O=C1NC(=O)c2cc(NC(=O)C3CN(c4cccc(Cl)c4)N(c4cccc(Cl)c4)C3=O)ccc21 (centres undefined)", "81.6%"],
  ["N#Cc1cnc(NC(=O)C2CN(c3cccc(Cl)c3)N(c3cccc(Cl)c3)C2=O)s1 (centres undefined)", "70.8%"],
  ["Cc1cnc(NC(=O)C2CN(c3cccc(Cl)c3)N(c3cccc(Cl)c3)C2=O)s1 (centres undefined)", "59.6%"],
  ["Cc1csc(NC(=O)C2CN(c3cccc(Cl)c3)N(c3cccc(Cl)c3)C2=O)n1 (centres undefined)", "60.2%"],
  ["O=C(Nc1nccs1)C1CN(c2cccc(Cl)c2)N(c2cccc(Cl)c2)C1=O (centres undefined)", "17.8%"],
  ["O=C(Nc1ncc([N+](=O)[O-])s1)C1CN(c2cccc(Cl)c2)N(c2cccc(Cl)c2)C1=O (centres undefined)", "67.6%"],
  ["O=C(Nc1cccc(-c2cn[nH]c2)c1)C1CN(c2cccc(Cl)c2)N(c2cccc(Cl)c2)C1=O (centres undefined)", "60.4%"],
  ["O=C(NCc1cccnc1)C1CN(c2cccc(Cl)c2)N(c2cccc(Cl)c2)C1=O (centres undefined)", "11.8%"],
  ["O=C(Nc1ccc(-c2cn[nH]c2)cc1)C1CN(c2cccc(Cl)c2)N(c2cccc(Cl)c2)C1=O (centres undefined)", "76.5%"]
]}
